Entry source: ChEMBL document CHEMBL1773038

- target system: Serine hydroxymethyltransferase, cytosolic (Homo sapiens)
- assay details: Mixed-type inhibition of human recombinant Serine hydroxymethyltransferase, cytosolic measured by Y-axes intercepts of mixed-type inhibition against compound concentration by spectrophotometry
assay readout: Ki (µM)

chemical_smiles=Nc1nc2[nH]cc(CCc3ccc(C(=O)N[C@@H](CCC(=O)O)C(=O)O)cc3)c2c(=O)[nH]1 assay_readout=Ki quantitative_readout=186

====

- target system: Serine hydroxymethyltransferase, cytosolic (Homo sapiens, UniProt P34896)
- Sequence (P34896 whole entry): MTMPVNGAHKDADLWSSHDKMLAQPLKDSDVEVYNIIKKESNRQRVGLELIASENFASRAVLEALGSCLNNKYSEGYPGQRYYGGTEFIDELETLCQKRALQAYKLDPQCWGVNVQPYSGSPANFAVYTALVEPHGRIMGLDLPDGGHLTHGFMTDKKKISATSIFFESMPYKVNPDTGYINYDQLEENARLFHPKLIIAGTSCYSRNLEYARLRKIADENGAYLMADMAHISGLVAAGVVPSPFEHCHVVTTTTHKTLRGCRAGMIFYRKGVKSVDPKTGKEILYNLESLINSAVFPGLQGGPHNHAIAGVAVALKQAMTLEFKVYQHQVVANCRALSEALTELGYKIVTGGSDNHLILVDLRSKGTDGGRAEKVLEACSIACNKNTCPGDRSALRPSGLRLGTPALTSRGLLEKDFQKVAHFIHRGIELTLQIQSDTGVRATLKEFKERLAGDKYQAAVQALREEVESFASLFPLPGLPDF
- assay details: Binding affinity to human recombinant Serine hydroxymethyltransferase, cytosolic by isothermal titration calorimetry
assay readout: Kd

chemical_smiles=Nc1nc2[nH]cc(CCc3ccc(C(=O)N[C@@H](CCC(=O)O)C(=O)O)cc3)c2c(=O)[nH]1 target_system="Serine hydroxymethyltransferase, cytosolic (Homo sapiens, UniProt P34896)" result="16.9 µM"
